Experiment: Solubility test using potassium phosphate buffer at pH 7.4
Assay type: physicochemical
Conditions: potassium phosphate buffer, 37 °C, pH 7.4, aqueous buffer, thermodynamic from solid, 5 mg prodrug in 10 mL potassium phosphate buffer pH 7.4, 37° C., HPLC-UV 254 nm, read-out: Solubility after 24 hours

[
  {
    "COMPOUND": "O=C(Cc1ccccc1Nc1c(Cl)cccc1Cl)OCOC(=O)OCC(O)CO (stereo not drawn)",
    "DISPLAY UNIT": "µg/mL",
    "solubility at 24 h": 269
  },
  {
    "COMPOUND": "CC1(C)OCC(COC(=O)OCOC(=O)Cc2ccccc2Nc2c(Cl)cccc2Cl)O1 (stereo not drawn)",
    "DISPLAY UNIT": "µg/mL",
    "solubility at 24 h": 0.33
  },
  {
    "COMPOUND": "O=C(Cc1ccccc1Nc1c(Cl)cccc1Cl)OCOC(=O)OCCCO",
    "DISPLAY UNIT": "µg/mL",
    "solubility at 24 h": 28.4
  }
]
